Origin of measurements: paper PMC8092843

I'd be grateful if you could share measured log10(EC50) for these entries.
# ASSAYED_SYSTEM: HLA-A*02:01 molecule (UniProt P01899+P04439, D140Y/D185E/D98H/E176V/G131W/I119V/I121R/I166T/N151K/N90K/Q86G/Q94H/R138H/R169H)
# EXPERIMENT_NOTES: cell-based
# Assay type: binding, human
# SETUP_CONDITIONS: SD
Ends that are not written are not given here.
Kindly note that the scale is log10 and the underlying EC50 is in µM.

Prompt: Report log10(EC50), nothing else, for this sequence: LLLTILTSL [pp1a-3583]
Response: 1.80

Prompt: Using the record for FLAHIQWMV [pp1a-3122] , state its measured log10(EC50).
Response: 0.84

Prompt: Output measured log10(EC50) for this item: CLLNRYFRL [pp1a-3798]
Response: 1.91

Prompt: Look up log10(EC50) of FITESKPSV [pp1a-1214] and report it.
Response: 2.09

Prompt: State, in one line, measured log10(EC50) of FLALCADSI [pp1a-685]
Response: 1.01

Prompt: Identify the reported log10(EC50) for the following entry. LMWLIINLV [pp1a-2364]
Response: 2.20

Prompt: Give reported log10(EC50) value for ILLLDQALV [pp1a-2569]
Response: 0.98

Prompt: Provide only the value of recorded log10(EC50) for FLARGIVFM [pp1a-3753]
Response: 1.85

----------
# ASSAYED_SYSTEM: HLA-A*02:01 molecule (UniProt P01899+P04439, D140Y/D185E/D98H/E176V/G131W/I119V/I121R/I166T/N151K/N90K/Q86G/Q94H/R138H/R169H)
# EXPERIMENT_NOTES: cell-based
# Type: binding, human
Ends that are not written are not given here.
OBSERVATION_TYPE: pEC50
API: returns pEC50 as number; meaning -log10 of concentration in mol/L.

Prompt: Please give the documented pEC50 of GILFGVFTL [FMP58-66, reference compound]
Response: 5.64

----------
# ASSAYED_SYSTEM: HLA-A*02:01 molecule (UniProt P01899+P04439, D140Y/D185E/D98H/E176V/G131W/I119V/I121R/I166T/N151K/N90K/Q86G/Q94H/R138H/R169H)
# EXPERIMENT_NOTES: cell-based
# Assay type: binding, human
# SETUP_CONDITIONS: SD
Ends that are not written are not given here.
OBSERVATION_TYPE: pEC50
pEC50 is a log-scale quantity: -log10 of the concentration expressed in molar.

Prompt: Return reported pEC50. Input sequence: YLTNDVSFL [pp1a-3115]
Response: 5.32

Prompt: Tell me its pEC50 given IVAGGIVAI [pp1a-3047] as the entry.
Response: 4.30

Prompt: Given the sequence WMVMFTPLV [pp1a-3128] , write its reported pEC50.
Response: 5.01

Prompt: Quick one: give measured pEC50 for LLFLMSFTV [pp1a-3083]
Response: 4.40

Prompt: Identify the reported pEC50 for the following entry. KLIEYTDFA [pp1a-2901]
Response: 3.90

Prompt: Look up pEC50 of GLNDNLLEI [pp1a-445] and report it.
Response: 5.22
